These entries and their values trace back to patent US8614201B2.

# Measurement Target: Human TRPA1 (Homo sapiens, UniProt O75762)
# Sequence (O75762 whole entry): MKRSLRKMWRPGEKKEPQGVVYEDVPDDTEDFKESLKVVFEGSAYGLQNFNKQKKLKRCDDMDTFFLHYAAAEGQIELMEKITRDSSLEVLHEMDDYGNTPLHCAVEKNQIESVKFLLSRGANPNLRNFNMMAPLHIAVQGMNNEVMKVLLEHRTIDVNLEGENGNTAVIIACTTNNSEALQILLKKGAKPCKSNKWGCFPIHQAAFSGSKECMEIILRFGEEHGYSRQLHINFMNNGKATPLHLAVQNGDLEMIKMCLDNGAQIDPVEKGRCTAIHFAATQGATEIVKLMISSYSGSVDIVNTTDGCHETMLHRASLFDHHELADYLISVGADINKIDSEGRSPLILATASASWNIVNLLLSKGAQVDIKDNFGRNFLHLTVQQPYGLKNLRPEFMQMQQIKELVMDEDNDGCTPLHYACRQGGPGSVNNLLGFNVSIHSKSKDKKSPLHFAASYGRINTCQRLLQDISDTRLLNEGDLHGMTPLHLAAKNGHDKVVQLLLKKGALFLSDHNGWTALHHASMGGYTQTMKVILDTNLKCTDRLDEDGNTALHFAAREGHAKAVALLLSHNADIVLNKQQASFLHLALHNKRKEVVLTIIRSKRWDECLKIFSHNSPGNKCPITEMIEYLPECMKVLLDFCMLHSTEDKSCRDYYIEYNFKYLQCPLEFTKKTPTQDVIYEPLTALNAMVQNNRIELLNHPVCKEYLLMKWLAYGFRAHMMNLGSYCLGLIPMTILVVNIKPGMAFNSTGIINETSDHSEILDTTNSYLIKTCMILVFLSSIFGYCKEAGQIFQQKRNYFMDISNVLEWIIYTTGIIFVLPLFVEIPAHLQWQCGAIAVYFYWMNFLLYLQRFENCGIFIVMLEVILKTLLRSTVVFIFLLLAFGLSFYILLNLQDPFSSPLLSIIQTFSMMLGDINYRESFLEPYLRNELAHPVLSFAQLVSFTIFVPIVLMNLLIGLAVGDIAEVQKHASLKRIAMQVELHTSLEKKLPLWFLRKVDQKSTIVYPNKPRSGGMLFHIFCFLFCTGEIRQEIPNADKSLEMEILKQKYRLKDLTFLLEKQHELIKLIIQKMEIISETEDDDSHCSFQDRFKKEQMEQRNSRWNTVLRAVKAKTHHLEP
# Assay Overview: Alternative TRPA1 Ca2+ fluorometry assay (hTRPA1/TREx-HEK293 cells, Fluo-4, FDSS 6000)
# Type: cell-based
# Design: expressed in transfected cells
# Condition Details: Fluo-4-AM, agonist 6,11-dihydro-5H-dibenzo[b,e]azepine-10-carboxylic acid methyl ester 25 nM, procedure used for Examples 184, 190 to 192, 194 to 316
pIC50: −log10 of the molar value.
Please provide measured pIC50 for the entries that follow.

Known value: Human TRPA1 (Homo sapiens, UniProt O75762) pIC50 of the molecule Cc1cccc(C)c1-c1cc(CNC(=O)[C@@H]2CCCN2S(=O)(=O)c2ccc(F)cc2)nc(N2CCN(c3ccccc3F)CC2)n1 equals ~6.03

Known value: Human TRPA1 (Homo sapiens, UniProt O75762) pIC50 of the molecule CN1CCN(C(=O)c2ccc(Nc3nc(CNC(=O)[C@@H]4CCCN4S(=O)(=O)c4ccc(F)cc4)cc(-c4ccc5c(c4)OCO5)n3)cc2)CC1 equals < 5.00

Known value: Human TRPA1 (Homo sapiens, UniProt O75762) pIC50 of the molecule CC(C)c1ccc(S(=O)(=O)N2CCC[C@H]2C(=O)NCc2cc(-c3ccc(C(F)(F)F)cc3)nc(N3CCN(c4ccccc4F)CC3)n2)cc1 equals < 5.00

Known value: Human TRPA1 (Homo sapiens, UniProt O75762) pIC50 of the molecule O=C(NCc1cc(-c2ccc(C(F)(F)F)cc2)nc(N2CCN(c3ccccc3F)CC2)n1)[C@@H]1CCCN1S(=O)(=O)c1cccc(F)c1 equals 6.16

Known value: Human TRPA1 (Homo sapiens, UniProt O75762) pIC50 of the molecule Cc1ccccc1-c1cc(CNC(=O)[C@@H]2CCCN2S(=O)(=O)c2ccc(F)cc2)nc(N2CCN(c3ccccc3F)CC2)n1 equals ~5.84

Known value: Human TRPA1 (Homo sapiens, UniProt O75762) pIC50 of the molecule O=C(NCc1cc(-c2ccc3c(c2)OCO3)nc(N2CCN(Cc3ccc4c(c3)OCO4)CC2)n1)[C@@H]1CCCN1S(=O)(=O)c1ccc(F)cc1 equals ~5.23

Known value: Human TRPA1 (Homo sapiens, UniProt O75762) pIC50 of the molecule O=C(NCc1cc(-c2ccc3c(c2)OCO3)nc(Nc2ccc(Cl)cc2)n1)[C@@H]1CCCN1S(=O)(=O)c1ccc(F)cc1 equals < 5.00

###

# Measurement Target: Human TRPA1 (Homo sapiens, UniProt O75762)
# Assay Overview: Alternative TRPA1 Ca2+ fluorometry assay (hTRPA1/TREx-HEK293 cells, Fluo-4, FDSS 6000)
# Format: cell-based
# Design: expressed in transfected cells
# Condition Details: Fluo-4-AM, agonist 6,11-dihydro-5H-dibenzo[b,e]azepine-10-carboxylic acid methyl ester 25 nM, procedure used for Examples 184, 190 to 192, 194 to 316
Please provide measured IC50 for the entries that follow.

Known value: Human TRPA1 (Homo sapiens, UniProt O75762) IC50 of the molecule O=C(NCc1cc(-c2ccc(C(F)(F)F)cc2)nc(N2CCN(c3ccccc3F)CC2)n1)[C@@H]1CCCN1S(=O)(=O)c1ccccc1Cl equals > 10 µM

Known value: Human TRPA1 (Homo sapiens, UniProt O75762) IC50 of the molecule O=C(NCc1cc(-c2ccc(C(F)(F)F)cc2)nc(N2CCN(c3ccccc3F)CC2)n1)[C@@H]1CCCN1S(=O)(=O)c1ccc(Cl)cc1F equals > 10 µM

Known value: Human TRPA1 (Homo sapiens, UniProt O75762) IC50 of the molecule CN1CCCN(c2nc(CNC(=O)[C@@H]3CCCN3S(=O)(=O)c3ccc(F)cc3)cc(-c3ccc(C(F)(F)F)cc3)n2)CC1 equals ~3.02 µM

Known value: Human TRPA1 (Homo sapiens, UniProt O75762) IC50 of the molecule CN1CCCC1CCNc1nc(CNC(=O)[C@@H]2CCCN2S(=O)(=O)c2ccc(F)cc2)cc(-c2ccc(C(F)(F)F)cc2)n1 (stereo partly drawn) equals ~4.79 µM

Known value: Human TRPA1 (Homo sapiens, UniProt O75762) IC50 of the molecule O=C(NCc1cc(-c2ccc(Br)cc2)nc(NCc2cccnc2)n1)[C@@H]1CCCN1S(=O)(=O)c1ccc(F)cc1 equals ~2.69 µM

Known value: Human TRPA1 (Homo sapiens, UniProt O75762) IC50 of the molecule Cc1cccc(S(=O)(=O)N2CCC[C@H]2C(=O)NCc2cc(-c3ccc(C(F)(F)F)cc3)nc(N3CCN(c4ccccc4F)CC3)n2)c1 equals > 10 µM

Known value: Human TRPA1 (Homo sapiens, UniProt O75762) IC50 of the molecule O=C(NCc1cccc(-c2ccc(C(F)(F)F)cc2)n1)[C@@H]1CCCN1S(=O)(=O)c1ccc(F)cc1 equals ~0.724 µM

Known value: Human TRPA1 (Homo sapiens, UniProt O75762) IC50 of the molecule Cc1ccccc1S(=O)(=O)N1CCC[C@H]1C(=O)NCc1cc(-c2ccc(C(F)(F)F)cc2)nc(N2CCN(c3ccccc3F)CC2)n1 equals > 10 µM

Known value: Human TRPA1 (Homo sapiens, UniProt O75762) IC50 of the molecule CCCc1ccc(S(=O)(=O)N2CCC[C@H]2C(=O)NCc2cc(-c3ccc(C(F)(F)F)cc3)nc(N3CCN(c4ccccc4F)CC3)n2)cc1 equals > 10 µM

Known value: Human TRPA1 (Homo sapiens, UniProt O75762) IC50 of the molecule O=C(NCc1cc(-c2ccc(C(F)(F)F)cc2)nc(N2CCN(c3ccccc3F)CC2)n1)[C@@H]1CCCN1S(=O)(=O)c1cccc(Cl)c1F equals > 10 µM

Known value: Human TRPA1 (Homo sapiens, UniProt O75762) IC50 of the molecule CC1CCN(c2nc(CNC(=O)[C@@H]3CCCN3S(=O)(=O)c3ccc(F)cc3)cc(-c3ccc4c(c3)OCO4)n2)CC1 equals ~2.09 µM

Known value: Human TRPA1 (Homo sapiens, UniProt O75762) IC50 of the molecule CN1CCCN(c2nc(CNC(=O)[C@@H]3CCCN3S(=O)(=O)c3ccc(F)cc3)cc(-c3ccc(Br)cc3)n2)CC1 equals > 10 µM

###

# Measurement Target: Human TRPA1 (Homo sapiens)
# Assay Overview: Assay 1: In vitro cellular testing of TRPA1 modulation (CHO-TREx, Fluo-3 calcium fluorescence, AITC agonist)
# Assay type: cell-based
# Parameters: expressed in transfected cells; host or cells: CHO-TREx cells (Invitrogen), vector pcDNA4/TO
# Condition Details: CHO-TREx cells expressing human TRPA1; Fluo-3 fluorescence (FLIPR/Tetra); agonist 15 μM allyl isothiocyanate (AITC); 30 minute antagonist incubation
Please provide measured IC50 for the entries that follow.
Only the number, expressed in nM, is required.

# IC50 of CC1CCCN1c1cc(CNC(=O)[C@@H]2C=CCN2S(=O)(=O)c2ccc(Cl)s2)cc(-c2ccc(C(F)(F)F)cc2)n1 (stereo partly drawn) = 82

# IC50 of CC(Nc1cc(CNC(=O)[C@@H]2CCCN2S(=O)(=O)c2ccc(F)cc2)cc(-c2ccc(C(F)(F)F)cc2)n1)c1ccncc1 (stereo partly drawn) = 594

# IC50 of O=C(NCc1cccc(-c2ccc(C(F)(F)F)c(Cl)c2)c1)[C@@H]1CCCN1S(=O)(=O)c1ccc(F)cc1 = 17

# IC50 of O=C(NCc1cc(-c2ccc(C(F)(F)F)cc2)ncn1)[C@@H]1CCCN1S(=O)(=O)c1ccc(Cl)nc1 = 95

# IC50 of O=C(NCc1cccc(-c2ccc3cc[nH]c3c2)c1)[C@@H]1CCCN1S(=O)(=O)c1ccc(F)cc1 = 4050

# IC50 of C[C@H](Nc1nc(CNC(=O)[C@@H]2CCCN2S(=O)(=O)c2ccc(Cl)s2)cc(-c2ccc(C(F)(F)F)cc2)n1)c1ccccn1 = 39
